Target: JAK3 (Homo sapiens, UniProt P52333)
Construct: 5 μl of catalytic domain recombinant Kinase enzyme+Tyr peptide substrate (Invitrogen, Calif.); purchased Invitrogen
Sequence (P52333 822-1111 limits assumed): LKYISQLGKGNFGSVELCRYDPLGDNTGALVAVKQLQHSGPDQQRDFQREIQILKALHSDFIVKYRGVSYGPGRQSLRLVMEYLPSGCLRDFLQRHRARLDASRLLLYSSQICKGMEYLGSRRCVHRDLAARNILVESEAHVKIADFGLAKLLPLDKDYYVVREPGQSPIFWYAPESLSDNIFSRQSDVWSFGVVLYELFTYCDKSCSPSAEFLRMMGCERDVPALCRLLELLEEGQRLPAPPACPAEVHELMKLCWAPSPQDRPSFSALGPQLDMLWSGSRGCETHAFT
Test: Z'-LYTE kinase assay, JAK3 tyrosine phosphorylation activity
Format: biochemical
PROPERTY_NAME: IC50

Please review the entries below; each comes with its answer.
NC(=O)c1cnc(Nc2cccc(NC(=O)Cc3ccccn3)c2)nc1NCc1ccccc1F [Example 300]
< 1 nM
CC(=O)N(C)c1cccc(Nc2ncc(C(N)=O)c(NCC3CC3)n2)c1 [Example 126]
10 to 100 nM
CC(=O)Nc1cccc(Nc2ncc(C(N)=O)c(N[C@@H](C)c3ccccc3)n2)c1 [Example 64]
10 to 100 nM
NC(=O)c1cnc(Nc2cccc(NC(=O)N3CCOCC3)c2)cc1N[C@H](CO)c1ccccc1 [Example 314]
1 to 10 nM
CN(C)[C@@H]1CCN(C(=O)Nc2cccc(Nc3ncc(C(N)=O)c(NCc4ccccc4)n3)c2)C1 [Example 210]
1 to 10 nM
CNC(=O)Nc1cccc(Nc2ncc(C(N)=O)c(NC3CCCC3)n2)c1 [Example 34]
1 to 10 nM

Problem: Provide value of IC50 for this record tested with JAK3 (Homo sapiens, UniProt P52333): NC(=O)c1cnc(Nc2ccc(N3CCCC3)c(NC(=O)N3CCCC3)c2)nc1NCc1ccccc1 [Example 159]
Result: 1 to 10 nM

Problem: Query the reported IC50 for JAK3 (Homo sapiens, UniProt P52333); item: CC(=O)Nc1cccc(Nc2ncc(C(N)=O)c(N[C@@H](c3ccccc3)C3CC3)n2)c1 [Example 152]
Result: 10 to 100 nM
